Molecular target: recombinant human PD-1 (human, UniProt Q15116 25-167)
Sequence (Q15116 25-167): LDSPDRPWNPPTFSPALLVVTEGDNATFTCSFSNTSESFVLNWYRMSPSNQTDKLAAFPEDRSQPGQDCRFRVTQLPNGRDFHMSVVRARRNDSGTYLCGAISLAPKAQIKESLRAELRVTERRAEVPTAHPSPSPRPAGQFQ
Assay: SPR
Each entry below lists one item and its recorded Kd value.
Respond numerically; units are nM and should not be typed.

// worked examples, Kd included
binder="1.139.15 hAb (antibody, V domains shown) VH: QLQLQESGPGLVKPSETLSLTCTVSGGSISSTTYYWGWIRQPPGKGLEWIGSISYSGTTYYNPSLKSRVTIPVDTSKNQISLKLSSVTAADTSLYYCARHLGYNSNWYPFDYWGQGTLVTVSS VL: QSALTQPPSVSGSPGQSVTISCTGTSSDVGSYNRVSWYQQPPGTAPEVIIYEVSNRPSGVPDRFSGSKSGNTASLTISGLQAEDEADYYCSSYTSSSTWVFGGGTKLTVL" metric_name=Kd value_units=nM quantitative_readout=3.71
binder="1.153.7 hAb (antibody, V domains shown) VH: EVQLLESGGGLVQPGGSLRLSCAASGFTFSSHAMSWVRQAPGKGLEWVSTITGGGGSIYYADSVKGRFTISRDNSKNTLYLQMNSLRAEDTAVYYCAKNRAGEGYFDYWGQGTLVTVSS VL: SYELTQPLSVSVALGQTARITCGGDNIGNKDVHWYQQKPGQAPVLVIYRDSNRPSGIPEGFSGSNSGNTATLTISRAQAGDEADYYCQVWDSIWVFGGGTKLTVL" metric_name=Kd value_units=nM quantitative_readout=2.79
binder="1.7.3 hAb (antibody, V domains shown) VH: QLQLQESGPGLVKPSETLTLTCTVSGDSISSTTYYWVWIRQPPGKGLEWIGSISYSGNTYYNPSLKSRVTISVDTSKNHFSLKLSSVAATDTALYYCARHLGYNGRYLPFDYWGQGTLVTVSS VL: QSALTQPASVSGSPGQSITISCTGTSSDVGFYNYVSWYQQHPGKAPELMIYDVTNRPSGVSDRFSGSKSGNTASLTISGLQAEDEADYYCSSYTSISTWVFGGGTKLTVL" metric_name=Kd value_units=nM quantitative_readout=0.176

I have this binder here, 1.49.9 hAb (antibody, V domains shown) VH: QLQLQESGPGLVKPSETLSLTCTVSGGSISSSTYYWGWIRQPPGKGLEWIGSISYSGSTYYNPSLKSRVTISVDTSKNQFSLKLSSVTDADTAVYYCARHLGYNGRYLPFDYWGQGTLVTVSS VL: QSALTQPASVSGSPGQSITISCTGTSSDVGFYNYVSWYQQHPGKAPEVMIYDVSNRPSGVSDRFSGSKSGNTASLTISGLQAEDEADYYCSSYTSISTWVFGGGTKLTVL , and I need its recorded Kd.
1.07
